- Test system: K-562
- TEST NAME: Anti-proliferative assay (cellular IC50), K-562
- MEASUREMENT PARAMETERS: Homo sapiens, K562, 72 h, read-out: In Vitro Cellular IC50 K-562
pIC50: −log10 of the molar value.
PROPERTY NAME: pIC50

compound=CCn1c(CN(C)Cc2ccc(/C=C/C(=O)NO)cc2)nc2c(N3CCOCC3)nc(-c3ccc(C(N)=O)cc3)nc21 tgt=K-562 property_name=pIC50 reading="5.00 to 5.70"
compound=CCn1c(CN(C)Cc2ccc(C(=O)NO)cc2)nc2c(N3CCOCC3)nc(-c3cnc(N)nc3)nc21 tgt=K-562 property_name=pIC50 reading="5.70 to 6.30"
compound="CS(=O)(=O)N1CCN(Cc2cc3nc(-c4cccc5[nH]ncc45)nc(N4CCOCC4)c3s2)CC1 [GDC-0941, reference compound]" tgt=K-562 property_name=pIC50 reading="< 5.00"

Next:
Please indicate pIC50 recorded for CCn1c(CN(C)Cc2ccc(/C=C/C(=O)NO)cc2)nc2c(N3CCOCC3)nc(-c3cccc(NC(C)=O)c3)nc21
5.00 to 5.70

###

Examples of molecules with documented pIC50 follow.
- Test system: U87 MG
- TEST NAME: Anti-proliferative assay (cellular IC50), U87 MG
- MEASUREMENT PARAMETERS: Homo sapiens, U-87 MG, read-out: In Vitro Cellular IC50 U87 MG
pIC50: −log10 of the molar value.

Sample answers from the record:
molecule=CCn1c(CN(C)Cc2ccc(C(=O)NO)cc2)nc2c(N3CCOCC3)nc(-c3cnc(N)nc3)nc21 tgt="U87 MG" property_name=pIC50 reading="5.00 to 5.70"
molecule=O=C(CCCOc1cccc(-c2nc(N3CCOCC3)nc3c2ncn3C2CCCC2)c1)NO tgt="U87 MG" property_name=pIC50 reading="5.70 to 6.30"
molecule=CC(C)n1cnc2c(-c3cccc(OCCCC(=O)NO)c3)nc(N3CCOCC3)nc21 tgt="U87 MG" property_name=pIC50 reading="5.70 to 6.30"

Next:
For U87 MG, give pIC50 of the listed molecule: CS(=O)(=O)N1CCN(Cc2cc3nc(-c4cccc5[nH]ncc45)nc(N4CCOCC4)c3s2)CC1 [GDC-0941, reference compound]
5.00 to 5.70

###

- Tested on: A-431
- TEST NAME: Anti-proliferative assay (cellular IC50), A-431
- MEASUREMENT PARAMETERS: Homo sapiens, A-431, read-out: In Vitro Cellular IC50 A-431
Examples of compounds with documented IC50 follow.

compound="CS(=O)(=O)N1CCN(Cc2cc3nc(-c4cccc5[nH]ncc45)nc(N4CCOCC4)c3s2)CC1 [GDC-0941, reference compound]" reading="< 500 nM"
compound="CC(C)n1cnc2c(-c3cccc(OCCCC(=O)NO)c3)nc(N3CCOCC3)nc21 [compound 1]" reading="2000 to 10000 nM"

For A-431, give IC50 of the listed compound: O=C(CCCOc1cccc(-c2nc(N3CCOCC3)nc3c2ncn3C2CCCC2)c1)NO [compound 100]
500 to 2000 nM

###

- TGT: p110α(H1047R)/p85α (Homo sapiens, UniProt P42336, H1047R)
- Sequence (P42336 whole entry H1047R): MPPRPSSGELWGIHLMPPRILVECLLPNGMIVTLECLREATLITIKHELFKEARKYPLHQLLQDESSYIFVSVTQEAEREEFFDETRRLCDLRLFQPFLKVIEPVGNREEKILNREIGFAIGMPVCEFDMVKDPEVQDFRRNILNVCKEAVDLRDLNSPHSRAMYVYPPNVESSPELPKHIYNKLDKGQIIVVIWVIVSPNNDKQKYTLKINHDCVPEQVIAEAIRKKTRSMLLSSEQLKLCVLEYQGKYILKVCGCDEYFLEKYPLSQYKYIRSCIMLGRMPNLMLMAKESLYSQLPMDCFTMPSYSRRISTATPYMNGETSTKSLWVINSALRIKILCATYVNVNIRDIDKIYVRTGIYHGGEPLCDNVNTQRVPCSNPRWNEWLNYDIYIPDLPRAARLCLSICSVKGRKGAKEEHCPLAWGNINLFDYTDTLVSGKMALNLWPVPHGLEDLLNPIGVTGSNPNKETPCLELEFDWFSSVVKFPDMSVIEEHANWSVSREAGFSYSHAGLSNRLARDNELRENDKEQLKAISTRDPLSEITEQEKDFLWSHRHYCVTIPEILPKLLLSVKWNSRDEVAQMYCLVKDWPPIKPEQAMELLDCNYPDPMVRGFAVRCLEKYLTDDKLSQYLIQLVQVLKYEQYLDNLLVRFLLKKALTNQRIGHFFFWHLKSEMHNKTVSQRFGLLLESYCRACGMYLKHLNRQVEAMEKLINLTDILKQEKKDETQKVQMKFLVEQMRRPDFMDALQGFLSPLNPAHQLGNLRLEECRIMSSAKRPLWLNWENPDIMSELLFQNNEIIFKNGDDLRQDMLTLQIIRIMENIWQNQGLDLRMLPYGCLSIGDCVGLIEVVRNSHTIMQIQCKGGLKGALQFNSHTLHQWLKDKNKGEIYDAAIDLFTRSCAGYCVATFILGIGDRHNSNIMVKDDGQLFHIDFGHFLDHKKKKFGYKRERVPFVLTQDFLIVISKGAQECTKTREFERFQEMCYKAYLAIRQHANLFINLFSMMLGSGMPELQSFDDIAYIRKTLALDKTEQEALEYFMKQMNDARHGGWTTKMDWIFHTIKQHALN
- Sequence (P27986 whole entry partner): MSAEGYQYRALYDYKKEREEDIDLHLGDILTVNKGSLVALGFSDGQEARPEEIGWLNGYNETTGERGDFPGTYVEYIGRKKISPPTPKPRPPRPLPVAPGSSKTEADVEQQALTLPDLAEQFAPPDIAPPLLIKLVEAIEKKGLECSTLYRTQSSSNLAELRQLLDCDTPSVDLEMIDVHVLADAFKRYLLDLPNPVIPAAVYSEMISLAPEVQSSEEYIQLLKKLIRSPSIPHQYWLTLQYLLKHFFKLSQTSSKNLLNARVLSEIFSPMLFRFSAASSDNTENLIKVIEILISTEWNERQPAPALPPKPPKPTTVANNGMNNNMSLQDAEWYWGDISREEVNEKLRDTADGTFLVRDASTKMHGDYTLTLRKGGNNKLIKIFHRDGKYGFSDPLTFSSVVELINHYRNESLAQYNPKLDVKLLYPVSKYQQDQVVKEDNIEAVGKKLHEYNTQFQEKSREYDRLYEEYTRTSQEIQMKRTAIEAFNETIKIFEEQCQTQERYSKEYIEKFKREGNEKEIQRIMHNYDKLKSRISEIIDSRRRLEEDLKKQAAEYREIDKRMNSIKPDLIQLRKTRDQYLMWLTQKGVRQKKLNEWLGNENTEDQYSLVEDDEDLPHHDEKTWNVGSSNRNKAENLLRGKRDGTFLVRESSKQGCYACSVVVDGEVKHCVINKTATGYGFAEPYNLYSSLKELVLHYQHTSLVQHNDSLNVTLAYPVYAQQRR
- TEST NAME: Kinase enzyme assay (ADP-Glo), PI3Kα (H1047R)
- MEASUREMENT PARAMETERS: read-out: In Vitro Enzymatic IC50 PI3Kα (H1047R)
pIC50: −log10 of the molar value.
PROPERTY NAME: pIC50

compound="CC(C)n1cnc2c(N3CCOCC3)nc(-c3ccc(OCCCCCCC(=O)NO)cc3)nc21 [compound 81]" reading="7.00 to 8.00"
compound="CCn1c(CN(C)Cc2ccc(C(=O)NO)cc2)nc2c(N3CCOCC3)nc(-c3cnc(N)nc3)nc21 [compound 7]" reading="7.00 to 8.00"
compound="CC(C)n1cnc2c(-c3cccc(OCCCC(=O)NO)c3)nc(N3CCOCC3)nc21 [compound 1]" reading="5.00 to 6.00"

Next:
For p110α(H1047R)/p85α (Homo sapiens, UniProt P42336, H1047R), give pIC50 of the listed compound: CC(C)n1cnc2c(-c3cnc(N)nc3)nc(NCCCCCC(=O)NO)nc21 [compound 38]
7.00 to 8.00

###

Examples of molecules with documented IC50 follow.
- Test system: MV-4-11
- TEST NAME: cells
- MEASUREMENT PARAMETERS: Homo sapiens, MV4-11, read-out: In Vitro Cellular IC50 MV-4-11

Sample answers from the record:
molecule=CCn1c(CN(C)Cc2ccc(C(=O)NO)cc2)nc2c(N3CCOCC3)nc(-c3cnc(N)nc3)nc21 property_name=IC50 reading="0.5 to 2 µM"
molecule=CC(C)n1cnc2c(-c3cccc(OCCCC(=O)NO)c3)nc(N3CCOCC3)nc21 property_name=IC50 reading="< 0.5 µM"
molecule="CS(=O)(=O)N1CCN(Cc2cc3nc(-c4cccc5[nH]ncc45)nc(N4CCOCC4)c3s2)CC1 [GDC-0941, reference compound]" property_name=IC50 reading="0.5 to 2 µM"

Next:
Please indicate IC50 recorded for O=C(CCCOc1cccc(-c2nc(N3CCOCC3)nc3c2ncn3C2CCCC2)c1)NO
< 0.5 µM

###

- Tested on: PLC/PRF/5
- TEST NAME: cells
- MEASUREMENT PARAMETERS: Homo sapiens, PLC-PRF-5, read-out: In Vitro Cellular IC50 PLC/PRF/5
pIC50: −log10 of the molar value.
PROPERTY NAME: pIC50

Sample answers from the record:
compound=CC(C)n1cnc2c(-c3cccc(OCCCC(=O)NO)c3)nc(N3CCOCC3)nc21 property_name=pIC50 reading="5.70 to 6.30"
compound=O=C(CCCOc1cccc(-c2nc(N3CCOCC3)nc3c2ncn3C2CCCC2)c1)NO property_name=pIC50 reading="5.70 to 6.30"

Next:
Please indicate pIC50 recorded for CS(=O)(=O)N1CCN(Cc2cc3nc(-c4cccc5[nH]ncc45)nc(N4CCOCC4)c3s2)CC1 [GDC-0941, reference compound]
5.00 to 5.70

###

Examples of molecules with documented pIC50 follow.
- TGT: UniProt:Q9UBN7
- Sequence (Q9UBN7 whole entry): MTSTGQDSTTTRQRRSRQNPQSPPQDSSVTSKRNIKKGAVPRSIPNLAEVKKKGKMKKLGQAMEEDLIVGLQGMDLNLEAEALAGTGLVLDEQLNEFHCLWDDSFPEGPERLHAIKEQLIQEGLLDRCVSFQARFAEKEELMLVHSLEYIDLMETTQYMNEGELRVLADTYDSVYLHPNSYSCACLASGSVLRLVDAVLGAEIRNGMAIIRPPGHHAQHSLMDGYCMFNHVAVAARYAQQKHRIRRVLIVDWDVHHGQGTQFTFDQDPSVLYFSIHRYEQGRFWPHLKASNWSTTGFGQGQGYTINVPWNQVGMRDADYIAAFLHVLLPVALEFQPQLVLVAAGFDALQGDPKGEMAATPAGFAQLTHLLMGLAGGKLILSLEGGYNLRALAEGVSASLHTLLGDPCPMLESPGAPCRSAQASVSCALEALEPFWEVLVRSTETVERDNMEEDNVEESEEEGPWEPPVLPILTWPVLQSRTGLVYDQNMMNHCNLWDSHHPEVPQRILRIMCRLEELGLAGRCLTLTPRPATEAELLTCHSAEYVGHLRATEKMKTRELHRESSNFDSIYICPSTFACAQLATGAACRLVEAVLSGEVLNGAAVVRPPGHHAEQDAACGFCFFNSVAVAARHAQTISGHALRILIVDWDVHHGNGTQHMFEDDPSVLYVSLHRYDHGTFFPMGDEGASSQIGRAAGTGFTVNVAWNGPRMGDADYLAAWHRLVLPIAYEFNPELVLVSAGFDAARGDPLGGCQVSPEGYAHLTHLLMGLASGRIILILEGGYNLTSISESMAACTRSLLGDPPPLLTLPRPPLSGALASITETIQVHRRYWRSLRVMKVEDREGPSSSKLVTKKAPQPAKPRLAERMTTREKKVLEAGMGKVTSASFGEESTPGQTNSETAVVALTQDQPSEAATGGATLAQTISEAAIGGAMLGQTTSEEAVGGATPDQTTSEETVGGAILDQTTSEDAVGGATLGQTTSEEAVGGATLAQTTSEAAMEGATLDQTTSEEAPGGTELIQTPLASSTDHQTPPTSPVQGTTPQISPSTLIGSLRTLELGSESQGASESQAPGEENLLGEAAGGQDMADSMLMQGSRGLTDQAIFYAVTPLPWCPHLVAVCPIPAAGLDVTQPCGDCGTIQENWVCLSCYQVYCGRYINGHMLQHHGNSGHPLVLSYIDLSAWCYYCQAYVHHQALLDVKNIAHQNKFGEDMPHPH
- TEST NAME: HDAC enzyme assay, recombinant HDAC6
pIC50: −log10 of the molar value.

molecule="Nc1ncc(-c2nc(N3CCOCC3)nc3c2ncn3CCCCCCC(=O)NO)cn1 [compound 3]" reading="7.00 to 8.00"

Please indicate pIC50 recorded for COc1ccc(-c2nc(N3CCOCC3)c3ncn(CCCCCCC(=O)NO)c3n2)cn1 [compound 52]
7.00 to 8.00

Please indicate pIC50 recorded for CC(C)n1cnc2c(-c3cnc(N)nc3)nc(NCCCCCC(=O)NO)nc21 [compound 38]
> 8.00

Please indicate pIC50 recorded for CCn1c(CN(C)Cc2ccc(/C=C/C(=O)NO)cc2)nc2c(N3CCOCC3)nc(-c3cccc(NC(C)=O)c3)nc21 [compound 92]
6.00 to 7.00

Please indicate pIC50 recorded for NC(=O)c1cccc(-c2nc(N3CCOCC3)c3ncn(CCCCCCC(=O)NO)c3n2)c1 [compound 49]
> 8.00

Please indicate pIC50 recorded for COc1ncc(-c2nc(N3CCOCC3)c3ncn(CCCCCCC(=O)NO)c3n2)cn1 [compound 55]
7.00 to 8.00

Please indicate pIC50 recorded for Nc1ncc(-c2nc(N3CCOCC3)c3ncn(CCCCCCC(=O)NO)c3n2)cn1 [compound 41]
> 8.00

Please indicate pIC50 recorded for CC(=O)Nc1cccc(-c2nc(N3CCOCC3)c3ncn(CCCCCCC(=O)NO)c3n2)c1 [compound 48]
> 8.00

Please indicate pIC50 recorded for CC(C)n1cnc2c(-c3cccc(OCCCC(=O)NO)c3)nc(N3CCOCC3)nc21 [compound 1]
7.00 to 8.00

Please indicate pIC50 recorded for O=C(CCCCCCn1ccc2c(N3CCOCC3)nc(-c3cccc(O)c3)nc21)NO [compound 79]
> 8.00

Please indicate pIC50 recorded for CCn1c(CN(C)Cc2ccc(C(=O)NO)cc2)nc2c(N3CCOCC3)nc(-c3cnc(N)nc3)nc21 [compound 7]
7.00 to 8.00

###

- System: MOLT-4
- TEST NAME: Anti-proliferative assay (cellular IC50), MOLT-4
- MEASUREMENT PARAMETERS: Homo sapiens, MOLT-4, read-out: In Vitro Cellular IC50 MOLT-4
PROPERTY NAME: IC50

Please indicate IC50 recorded for O=C(CCCOc1cccc(-c2nc(N3CCOCC3)nc3c2ncn3C2CCCC2)c1)NO
< 500 nM

###

- Tested on: ACHN
- TEST NAME: Anti-proliferative assay (cellular IC50), ACHN
- MEASUREMENT PARAMETERS: Homo sapiens, read-out: In Vitro Cellular IC50 ACHN
PROPERTY NAME: IC50

Sample answers from the record:
compound="CC(C)n1cnc2c(-c3cccc(OCCCC(=O)NO)c3)nc(N3CCOCC3)nc21 [compound 1]" property_name=IC50 reading="500 to 2000 nM"
compound="CS(=O)(=O)N1CCN(Cc2cc3nc(-c4cccc5[nH]ncc45)nc(N4CCOCC4)c3s2)CC1 [GDC-0941, reference compound]" property_name=IC50 reading="500 to 2000 nM"

Next:
Please indicate IC50 recorded for CCn1c(CN(C)Cc2ccc(C(=O)NO)cc2)nc2c(N3CCOCC3)nc(-c3cnc(N)nc3)nc21 [compound 7]
2000 to 10000 nM
